tested on: Isoproterenol--Tachycardie der narkotisierten Katze; test: beta-sympatholytic effect on isoproterenol tachycardia in the anaesthetised cat; type: in vivo; details: Propranolol = 1,00; Katze, i.v.
For each entry below, report its ß-Sympatholytische Wirkung R.W. (Relative Wirksamkeit) value.

Some compounds with recorded ß-Sympatholytische Wirkung R.W. (Relative Wirksamkeit):
Cc1cc(C=Cc2ccccc2OCC(O)CNC(C)C)on1 (stereo not shown) [Verbindung 6]	14,3
Cc1cc(C=Cc2ccccc2OCC(O)CNC(C)(C)C)on1 (stereo not shown) [Verbindung 7]	20,0
CCc1cc(C=Cc2ccccc2OCC(O)CNC(C)(C)C)on1 (stereo not shown) [Verbindung 9]	6,1

Now, please, on to the next compound.
Challenge: For C#CC(C)(C)NCC(O)COc1ccccc1C=Cc1cc(C)no1 (stereo not shown) [Verbindung 10] , what is its reported ß-Sympatholytische Wirkung R.W. (Relative Wirksamkeit)?
Response given: 6,5

###

I'd be grateful if you could share measured LD50 at 168 h for these entries.
Assay: in vivo
Conditions: mouse, in vivo, ip
Experimental: Die Applikation der getesteten Substanzen erfolgt 10 min vor Isoproterenol an Gruppen von 3 bis 5 Katzen pro Dosis. […] Blutdrucksenkende Wirkung an der. narkotisierten Ratte. Zur Testung der blutdrucksenkenden Wirkung erhalten Gruppen von 3 bis 5 männlichen Sprague-Dawley-Ratten (Gewicht: 230 - 280 g) in Urethan-Narkose (1,78 g/kg) i.p.) die Substanz intravenös appliziert. Die Messung des Blutdrucks in der A.carotis erfolgt über Statham-Transducer. […]
Give bare numbers, in mg/kg.

Cc1cc(C=Cc2ccccc2OCC(O)CNC(C)C)on1 (stereo not shown) [Verbindung 6]	108

Batch: LD50 at 168 h for all items listed.
1. CCc1cc(C=Cc2ccccc2OCC(O)CNC(C)(C)C)on1 (stereo not shown) [Verbindung 9]
2. Cc1cc(C=Cc2ccccc2OCC(O)CNC(C)(C)C)on1 (stereo not shown) [Verbindung 7]
3. C#CC(C)(C)NCC(O)COc1ccccc1C=Cc1cc(C)no1 (stereo not shown) [Verbindung 10]

Response given:
1: 84; 2: 123; 3: 247
